Parameter: max activity. Scope: all listed entries.
- measurementDescription: HEK293 cell cytotoxicity, dose response, cytotoxicity control, plate reader, cherry-picked samples (AID 743446)
- measurementSetup: hits give low values; at 26 µM unless noted
Entries with a potency or affinity are not part of this list. The source made the active and inactive calls. How the calls were made is not given here.

# molecule, max activity
rows = [
    ("CNCc1ccccc1Sc1ccc(O)c(O)c1", "-16.4% (inactive)"),
    ("COc1ccccc1CN(C)C[C@@H]1OCc2cnnn2CCCC(=O)N([C@H](C)CO)C[C@H]1C", "11% [at 0.38 µM] (inactive)"),
    ("COc1ccc2oc(-c3ccccc3)cc(=O)c2c1", "-14.7% [at 12 µM] (inactive)"),
    ("O=C(CN1CCOc2ccccc21)NCc1ccc(F)cc1", "16.4% [at 6 µM] (inactive)"),
    ("CN(C)c1cccc(C(=O)Nc2nc3ccccc3[nH]2)c1", "39.2% [at 12 µM] (inactive)"),
    ("CC(C)(C)C(=O)Nc1ccc(NC(=O)c2ccco2)nc1", "11.3% [at 0.38 µM] (inactive)"),
    ("CN(C)S(=O)(=O)c1cccc(NC(=O)COc2ccccc2C(=O)Nc2ccccc2)c1", "-34.1% (inactive)"),
    ("CCc1nnc2cccc(Cl)n12", "-9.24% [at 1.6 µM] (inactive)"),
    ("Cc1ccc(-c2cc(C(=O)N3CCOCC3)no2)cc1", "-12% [at 6 µM] (inactive)"),
    ("CC(=O)c1ccc(NC(=O)c2noc3c2CCC3)cc1", "12.6% [at 0.1 µM] (inactive)"),
    ("COc1ccc(S(=O)(=O)Nc2ccc3c(c2)C(=O)N([C@H](C)CO)C[C@H](C)[C@H](CN(C)S(=O)(=O)c2ccc(F)cc2)OCCCC[C@@H](C)O3)cc1", "-23.7% [at 12 µM] (inactive)"),
    ("O=C(CN1C(=O)c2ccccc2S1(=O)=O)c1ccc2c(c1)OCCCO2", "-22% [at 0.8 µM] (inactive)"),
    ("COc1ccc(S(=O)(=O)N(C)C[C@@H]2OCc3cnnn3CCCC(=O)N([C@@H](C)CO)C[C@H]2C)cc1", "0% [setting not given] (inactive)"),
    ("Cc1nc2c(OCCC3CCCCC3)cccn2c1N(C)C(=O)CCC1CCCC1", "-22.5% [at 6 µM] (inactive)"),
    ("O=C(CN1C(=O)c2ccccc2S1(=O)=O)c1ccccc1F", "74.6% (inactive)"),
    ("C[C@H](CO)N1C[C@H](C)[C@H](CN(C)C(=O)CN2CCOCC2)Oc2ncc(C#CCN(C)C)cc2C1=O", "18.5% [at 0.42 µM] (inactive)"),
    ("O=C(Nc1ccc(Cl)c(S(=O)(=O)N2CCOCC2)c1)c1ccc2c(c1)OCCO2", "-8.36% [at 3 µM] (inactive)"),
    ("O=C(NCCOc1ccccc1)[C@@H]1CCCN1C(=O)c1cccs1", "-12.7% [at 0.05 µM] (inactive)"),
    ("Cc1ccc(S(=O)(=O)N(C)C[C@H]2Oc3cc(Br)ccc3S(=O)(=O)N([C@H](C)CO)C[C@H]2C)cc1", "10.1% [at 1.6 µM] (inactive)"),
    ("CCOc1ccc(C(=O)Nc2nnc(SCC(=O)NCC3CCCO3)s2)cc1 (stereo unspecified)", "27.5% [at 3 µM] (inactive)"),
    ("CC(C)(C)c1ccc(C(=O)NCCOc2ccccc2F)cc1", "23.5% (inactive)"),
]

###

- measurementDescription: HEK293 cell cytotoxicity, dose response, cytotoxicity control, plate reader, cherry-picked samples (AID 743446)
- measurementSetup: hits give low values; at 26 µM unless noted
Potency and affinity values are given separately. Active and inactive are the calls of the source. How the calls were made is not given here.
recordedEndpoint: max activity

# smilesCode, recordedMeasurement
measured = [
    ("C[C@H](CO)N1C[C@H](C)[C@H](CN(C)Cc2ccc(C(F)(F)F)cc2)Oc2ccc(NC(=O)Nc3ccc(F)cc3)cc2C1=O", "-29.9% (inactive)"),
    ("Cc1ccc(S(=O)(=O)N2[C@@H](CO)CO[C@H]2CC(=O)OCc2ccccc2)cc1", "42.9% [at 12 µM] (inactive)"),
    ("N#C[C@@H]1[C@H](c2ccc(C#Cc3cccc(F)c3)cc2)[C@@H](CO)N1C(=O)C1CCC1", "22.1% [at 12 µM] (inactive)"),
    ("Cc1cc(-c2nc3cc(F)ccc3s2)ccc1N", "28.1% [at 1.6 µM] (inactive)"),
    ("COc1ccc2c3c([nH]c2c1)[C@H](CO)N(C(C)=O)CC31CCN(C(=O)CN2CCOCC2)CC1", "11.8% [at 0.38 µM] (inactive)"),
    ("CN1c2ccc(-c3ccc(F)cc3)cc2[C@H]2[C@H](CCN2C(=O)Nc2ccc(F)cc2)[C@H]1CO", "39.2% [at 1.6 µM] (inactive)"),
    ("Cc1ccc(C)c(S(=O)(=O)N(C(=O)c2ccncc2)c2ccc(OC(=O)c3ccncc3)cc2)c1", "13.7% (inactive)"),
    ("C[C@H](CO)N1C[C@H](C)[C@H](CN(C)S(=O)(=O)c2ccc(C(F)(F)F)cc2)OCc2ccccc2-c2c(n(C)c3ccccc23)C1=O", "-10.7% [at 1.6 µM] (inactive)"),
]

###

- measurementDescription: HEK293 cell cytotoxicity, dose response, cytotoxicity control, plate reader, cherry-picked samples (AID 743446)
- measurementSetup: hits give low values; at 26 µM unless noted
Measured potencies and affinities stand elsewhere. The source made the active and inactive calls. The rule behind the calls is not given here.
recordedEndpoint: max activity

# compound, recordedMeasurement
rows = [
    ("COc1cccc(-c2ccc(C3[C@@H]4CN(C(=O)C5CC5)C[C@H]3N4)cc2)c1 (stereo partly specified)", "15.1% [at 3 µM] (inactive)"),
    ("C[C@@H]1CN([C@H](C)CO)C(=O)c2c(c3ccccc3n2C)-c2ccccc2CO[C@H]1CN(C)S(=O)(=O)c1cn(C)cn1", "11.7% [at 12 µM] (inactive)"),
    ("CCC(=O)N(C)C[C@H]1Oc2cc(C#CCC(C)C)ccc2S(=O)(=O)N([C@H](C)CO)C[C@@H]1C", "21.8% [at 0.05 µM] (inactive)"),
    ("C[C@@H]1CN([C@@H](C)CO)C(=O)c2cc(NS(C)(=O)=O)ccc2O[C@@H](C)CCCCO[C@@H]1CN(C)Cc1ccc(C(F)(F)F)cc1", "-12.9% [at 0.1 µM] (inactive)"),
    ("C[C@@H]1CN([C@H](C)CO)C(=O)c2cc(C#CCN(C)C)cnc2O[C@@H]1CN(C)C(=O)CN1CCOCC1", "12.9% [at 0.195 µM] (inactive)"),
    ("COc1cccc(NC(=O)Nc2cccc(C(=O)O)c2)c1", "-21.7% [at 3 µM] (inactive)"),
]

###

- measurementDescription: HEK293 cell cytotoxicity, dose response, cytotoxicity control, plate reader, cherry-picked samples (AID 743446)
- measurementSetup: hits give low values; at 26 µM unless noted
Entries with a potency or affinity are not part of this list. Calls of active or inactive are those of the source. The rule behind the calls is not given here.
Parameter: max activity. Scope: all listed entries.

# compound, max activity
rows = [
    ("CN(C)c1ccc(C(=O)Nc2nc3c(s2)CCCC3)cc1", "-30% (inactive)"),
    ("CCCCc1ccc(NC(=O)c2cnccn2)cc1", "-14.3% [at 3 µM] (inactive)"),
    ("C[C@H](CO)N1C[C@H](C)[C@H](CN(C)C(=O)Nc2ccccc2)OCCCC[C@H](C)Oc2ccc(NC(=O)Nc3ccccc3)cc2C1=O", "21.5% (inactive)"),
    ("CCCNC(=O)N1[C@H](C#N)[C@H](c2ccc(C#Cc3ccc(F)cc3)cc2)[C@H]1CO", "-37% (inactive)"),
    ("C[C@H](CO)N1C[C@H](C)[C@H](CN(C)C(=O)Nc2cccc3ccccc23)OCCCC[C@H](C)Oc2ccc(NC(=O)NC3CCCCC3)cc2C1=O", "68.9% (inactive)"),
    ("O=C1CC(c2ccc3c(c2)OCO3)Sc2nc3ccccc3n21 (centres undefined)", "-8.84% [at 0.38 µM] (inactive)"),
    ("OC[C@H]1[C@@H](c2ccc(-c3ccc(F)cc3)cc2)[C@@H]2CN(Cc3ccccn3)CCCCN12", "-12.3% (inactive)"),
    ("O=C(O)c1ccc(N/N=C/c2ccc3ncccc3c2)cc1", "14.9% [at 12 µM] (inactive)"),
    ("O=C(c1ccc(F)cc1)N1CC(=O)N2[C@@H](CO)[C@@H](c3ccc(C#CC4CCCC4)cc3)[C@@H]2C1", "32.7% [at 6 µM] (inactive)"),
    ("CCc1nnc(NC(=O)CSc2nnc3ncccn23)s1", "33.7% (inactive)"),
    ("O=C(Nc1nc2c(s1)CCCC2)C1COc2ccccc2O1 (centres undefined)", "55.6% [at 0.05 µM] (inactive)"),
    ("C[C@H](CO)N1C[C@H](C)[C@H](CN(C)C(=O)Nc2ccc(F)cc2)OCCCC[C@H](C)Oc2ccc(NC(=O)C3CCCCC3)cc2C1=O", "-10.8% [at 6 µM] (inactive)"),
    ("O=C(Nc1cccc(-c2ccc(N3CCCCC3)nn2)c1)C(F)(F)F", "-33.5% [at 3 µM] (inactive)"),
    ("Cc1ccccc1S(=O)(=O)N1[C@H](C#N)[C@H](c2ccc(C#CC3CCCCC3)cc2)[C@H]1CO", "29.2% [at 3 µM] (inactive)"),
    ("COc1ccccc1N/C=C/c1onc(C)c1[N+](=O)[O-]", "-8.08% [at 0.8 µM] (inactive)"),
    ("c1ccc(-n2ncc3c(N4CCCCC4)ncnc32)cc1", "-13.3% [at 3 µM] (inactive)"),
    ("Cc1cnc(NC(=O)c2ccc(OCC3CCCO3)cc2)s1 (centres undefined)", "9% [at 6 µM] (inactive)"),
    ("CC[C@H](CO)Oc1cc(NCc2ccc(Cl)c(Cl)c2)c2ncn(C(C)C)c2c1", "27.3% [at 0.05 µM] (inactive)"),
    ("Cc1ccc(CNS(=O)(=O)c2ccc3c(c2)CCN3C(=O)CCCC(=O)O)cc1", "14.5% [at 6 µM] (inactive)"),
    ("O=C(CCc1nnc(CCCCc2ccccc2)o1)N1CCCC(O)C1 (centres undefined)", "-17.7% [at 0.1 µM] (inactive)"),
    ("COc1cccc(C(=O)Nc2ccc3c(c2)OC[C@@H](C)N(CC2CC2)C[C@H](C)[C@H](OC)CN(C)C3=O)c1", "13% [at 0.05 µM] (inactive)"),
    ("C[C@@H]1CN([C@H](C)CO)C(=O)c2cc(NC(=O)Nc3cccc4ccccc34)ccc2O[C@@H]1CN(C)C(=O)Nc1ccccc1", "29.1% [at 0.8 µM] (inactive)"),
    ("Cc1cc(C(=O)COC(=O)c2ccccc2O)c(C)n1CC1CCCO1 (centres undefined)", "-7.06% [at 6 µM] (inactive)"),
    ("COc1ccc2oc(C(=O)NCCc3ccccc3)c(C)c2c1", "-55.4% (inactive)"),
    ("COc1ccc(C(=O)Nc2ccc3ncccc3c2)cc1", "-20.3% (inactive)"),
    ("COC(=O)c1c(N)sc(C(=O)NCCc2ccccc2)c1C", "16.2% [at 3 µM] (inactive)"),
    ("C[C@@H]1CN([C@@H](C)CO)S(=O)(=O)c2ccc(C3=CCCC3)cc2O[C@H]1CN(C)C(=O)c1ccccc1", "11.7% [at 0.1 µM] (inactive)"),
    ("CCOC(=O)Nc1ccc(N2CCOCC2)c(S(=O)(=O)Nc2ccc(Cl)cc2)c1", "-19.3% (inactive)"),
    ("O=C(Nc1cccnc1)c1cc(-c2ccc3c(c2)OCO3)on1", "26.9% [at 12 µM] (inactive)"),
    ("C[C@H](CO)N1C[C@H](C)[C@@H](CN(C)S(=O)(=O)c2cccs2)Oc2c(cccc2N(C)C)C1=O", "11.4% [at 6 µM] (inactive)"),
    ("COc1ccc(-c2cc3nc(CCl)[nH]c(=O)c3s2)cc1", "-60.9% (inactive)"),
    ("O=C(Cc1ccncc1)NCC[C@H]1CC[C@H](NC(=O)C2CCCC2)[C@H](CO)O1", "13.9% [at 0.1 µM] (inactive)"),
    ("CCS(=O)(=O)N1Cc2ccccc2CC1C(=O)Nc1nc2ccccc2s1 (centres undefined)", "11.4% [at 0.38 µM] (inactive)"),
    ("O=C(O)c1cccc(N/N=C/c2cccs2)c1", "58.2% [at 6 µM] (inactive)"),
    ("CC(=O)c1c(C)[nH]c(C(=O)CN2C(=O)NC(C)(c3ccc(C)cc3)C2=O)c1C (centres undefined)", "39.5% (inactive)"),
    ("O=C(Nc1cccc(C(=O)O)c1)Nc1ccccc1Cl", "-26.9% [at 6 µM] (inactive)"),
    ("C[C@H](CO)N1C[C@H](C)[C@H](CN(C)C(=O)Nc2ccc(F)cc2)OCCCC[C@H](C)Oc2ccc(NC(=O)NC3CCCCC3)cc2C1=O", "38.8% [at 12 µM] (inactive)"),
    ("CCOC(=O)c1sc(NC(=O)Nc2ccccc2F)nc1C", "-21.8% [at 0.05 µM] (inactive)"),
    ("C[C@H](CO)N1C[C@H](C)[C@@H](CN(C)CC2CCOCC2)Oc2ncc(Br)cc2C1=O", "4.11% (inactive)"),
]
